# Test system: hydrochloric acid.ethanol-induced gastric ulcer
# test: Inhibitory effect on hydrochloric acid.ethanol-induced gastric ulcer
# Format: in vivo
# conditions-used: Rattus norvegicus, 1 h, male SD rats, oral, 30 min before 98% ethanol containing 200 mM hydrochloric acid, read-out: Inhibitory Percent (ulcer inhibitory percent)
Use T when the recorded inhibition in vivo at 30 mg/kg is no lower than 70%; use F when it is lower.

Worked examples, 5 compounds total:
compound	assayed-target	label
CC1(C)N=C(SCc2ccccn2)NC1=O	hydrochloric acid.ethanol-induced gastric ulcer	T
CCC1(C)C(=O)N=C(SCc2ccccc2N(C)C)N1C(C)=O (centres unmarked)	hydrochloric acid.ethanol-induced gastric ulcer	F
CN(C)c1ccccc1CSC1=NC(Cc2ccccc2)C(=O)N1 (centres unmarked)	hydrochloric acid.ethanol-induced gastric ulcer	T
CC1N=C(SCc2ccccn2)NC1=O (centres unmarked)	hydrochloric acid.ethanol-induced gastric ulcer	T
CN(C)c1ccccc1CSC1=NC(C)(c2ccccc2)C(=S)N1 (centres unmarked)	hydrochloric acid.ethanol-induced gastric ulcer	T

Please turn your attention to the following entry.
For this compound, is measured inhibition in vivo at 30 mg/kg 70% or higher? CC(C)CN(C)c1ccccc1CSC1=NC(C)(C)C(=O)N1
T

Origin of the recorded values: patent US5733922A
